Data provenance: patent US20210238197A1

Test system: multiple species and strains
experiment: microbe, parasite or virus in culture
testContext: Klebsiella pneumoniae, ATCCBAA2146, read-out: MIC S6, K. pneumoniae ATCC BAA-2146
Label 1.0 when MIC < 2 µg/mL; otherwise 0.0.

Asked: Criterion: MIC strictly below 2 µg/mL. Is it met by CNc1cc(F)c(F)c2c1[nH]c1ncc(-c3ccc4ccc(C(=O)O)c(=O)n4c3)c(N3CC[C@]4(C[C@H]4N)C3)c12 [Example 4.01C] ?
Given back: 0.0

Asked: Now this one: CNc1cc(F)c(Cl)c2c1[nH]c1ncc(-c3ccc4ccc(C(=O)O)c(=O)n4c3)c(N3CC[C@@]4(C[C@H]4N)C3)c12 [Example 5.01C]
Given back: 0.0

Asked: Ok, now CNc1cc(F)c(F)c2c1[nH]c1ncc(-c3ccc4ccc(C(=O)O)c(=O)n4c3)c(N3C[C@H]4CCN(C)[C@H]4C3)c12 [Example 3.03A]
Given back: 1.0

Asked: Thanks! And CNc1cc(F)c(F)c2c1[nH]c1ncc(-c3ccc4ccc(C(=O)O)c(=O)n4c3)c(N3CC[C@@H]4CCN(C)[C@@H]4C3)c12 [Example 3.04B] ?
Given back: 1.0

Asked: What do we get for "CNc1cc(F)c(Cl)c2c1[nH]c1ncc(-c3ccc4ccc(C(=O)O)c(=O)n4c3)c(N3C[C@H]4CC[C@@H](N(C)C)[C@H]4C3)c12" ?
Given back: 0.0

Now let's try a different one.
Asked: Please determine if "CNc1cc(F)c(C#N)c2c1[nH]c1ncc(-c3ccc4ccc(C(=O)O)c(=O)n4c3)c(N3CC[C@H]4CN(C)C[C@H]43)c12" is below 2 µg/mL in terms of MIC.
Given back: 1.0

---

System: multiple species and strains
experiment: microbe, parasite or virus in culture
testContext: Pseudomonas aeruginosa, ATCC27853, read-out: MIC S7, P. aeruginosa ATCC 27853
Protocol: The MIC of antibacterial compounds against multiple species and strains was determined using the broth microdilution method according to M07-A10 Clinical and Laboratory Standards Institute (CLSI) guidelines (CLSI (2015) Methods for dilution antimicrobial susceptibility tests for bacteria that grow aerobically; Approved Standard, Tenth Edition. CLSI Document M7-A10 (ISBN 1-56238-987-4). Wayne, Pa.: Clinical and Laboratory Standards Institute, 19087, USA.). […]
assayReadout: MIC
Please provide the amount together with its unit, number first.

Asked: Data request, read-out MIC, for CNc1cc(F)c(F)c2c1[nH]c1ncc(-c3ccc4c(C)cc(C(=O)O)c(=O)n4c3)c(N3CC[C@H]4CN(C)C[C@H]43)c12 (relative stereo)
Given back: 2.46 mg/L

Asked: Subsequent entry: "CNc1cc(F)c(C#N)c2c1[nH]c1ncc(-c3ccc4ccc(C(=O)O)c(=O)n4c3)c(N(C)C)c12"
Given back: 0.367 mg/L

Asked: Then CNc1cc(F)c(Cl)c2c1[nH]c1ncc(-c3ccc4ccc(C(=O)O)c(=O)n4c3)c(N3CC[C@]4(C[C@H]4N)C3)c12 [Example 5.01B] ?
Given back: 2.07 mg/L

Asked: Now this one: "CNc1cc(F)c(F)c2c1[nH]c1ncc(-c3ccc4ccc(C(=O)O)c(=O)n4c3)c(N3CC[C@H]4CN(C)C[C@H]43)c12"
Given back: 0.514 mg/L

Asked: Subsequent entry: CNc1cc(F)c(F)c2c1[nH]c1ncc(-c3ccc4c(Cl)cc(C(=O)O)c(=O)n4c3)c(N3CC[C@H]4CN(C)C[C@H]43)c12 (relative stereo)
Given back: 2.17 mg/L

Could I get MIC for every one of these entries?
1. CNc1cc(F)c(Cl)c2c1[nH]c1ncc(-c3ccc4ccc(C(=O)O)c(=O)n4c3)c(N3CC[C@H]4CN(C)C[C@H]43)c12
2. CNc1cc(F)c(F)c2c1[nH]c1ncc(-c3ccc4ccc(C(=O)O)c(=O)n4c3)c(N3CCC4CN(C)C[C@@H]43)c12 (stereo in doubt)

Given back:
1. 0.527 mg/L
2. 1.03 mg/L
